Origin of values: ChEMBL document CHEMBL6178010

Assay: Metabolic stability in mouse liver microsome assessed as intrinsic clearance
Assay type: ADME
Settings: liver microsomes, read-out: CLH
Measurement Type: microsomal CLint (µL/min/mg)

- Chemical String: "CC1=CC(=O)N(Nc2nc(N(C)CC3CC3)nn3cccc23)C1=O"
  Units Label: "µL/min/mg"
  Value Prefix: "="
  Val: 528
- Chemical String: "CC1=CC(=O)N(Nc2nc(Cl)c(C(F)(F)F)cc2F)C1=O"
  Units Label: "µL/min/mg"
  Value Prefix: "="
  Val: 121
- Chemical String: "CC1=CC(=O)N(Nc2nc(C(F)(F)F)nn3cccc23)C1=O"
  Units Label: "µL/min/mg"
  Value Prefix: "<"
  Val: 23
- Chemical String: "CC1=CC(=O)N(Nc2nc(-c3ccccc3)nn3cccc23)C1=O"
  Units Label: "µL/min/mg"
  Value Prefix: "="
  Val: 19
- Chemical String: "CC1=CC(=O)N(Nc2nc(N3CCCC3)nn3cccc23)C1=O"
  Units Label: "µL/min/mg"
  Value Prefix: "<"
  Val: 23
- Chemical String: "CC1=CC(=O)N(Nc2ccc(C(F)(F)F)c(N3CC(F)(F)C3)n2)C1=O"
  Units Label: "µL/min/mg"
  Value Prefix: ">"
  Val: 139
- Chemical String: "CC1=CC(=O)N(N(C)c2nc(N(C)CC3CC3)nn3cccc23)C1=O"
  Units Label: "µL/min/mg"
  Value Prefix: "="
  Val: 163
- Chemical String: "CC1=CC(=O)N(Nc2cc(C(F)(F)F)cc(C(F)(F)F)c2)C1=O"
  Units Label: "µL/min/mg"
  Value Prefix: "<"
  Val: 23
- Chemical String: "COc1cccc2nc(-c3cccs3)nc(NN3C(=O)C=C(C)C3=O)c12"
  Units Label: "µL/min/mg"
  Value Prefix: ">"
  Val: 139
- Chemical String: "CC1=CC(=O)N(Nc2ccc(C(F)(F)F)c(N3CCC3)n2)C1=O"
  Units Label: "µL/min/mg"
  Value Prefix: ">"
  Val: 139
- Chemical String: "CC1=CC(=O)N(Nc2ccc(C(F)(F)F)c(Cl)n2)C1=O"
  Units Label: "µL/min/mg"
  Value Prefix: "="
  Val: 53

====

# selectivity ratio per record follows
System: XPO1
Assay: Selectivity ratio of EC50 for cytotoxicity against human Jurkat cells assessed as suppression of cell viability to EC50 for inhibition of XPO1 in PMA/ionomycin-activated human Jurkat cells expressing IL-2 promoter reporter gene assessed as suppression of IL-2 transcriptional activity
Format: toxicity, cell-based
Conditions: read-out: Ratio EC50
Measurement Type: selectivity ratio

- Compound: "CC1=CC(=O)N(Nc2ccc(C(F)(F)F)c(N3CCCC3=O)n2)C1=O"
  Measurement Type: "selectivity ratio"
  Val: 2.9
- Compound: "CC1=CC(=O)N(Nc2nc(N(C)CC3CC3)nn3cccc23)C1=O"
  Measurement Type: "selectivity ratio"
  Val: 5.4
- Compound: "CC1=CC(=O)N(N(C)c2nc(N3CC(F)(F)C3)nn3cccc23)C1=O"
  Measurement Type: "selectivity ratio"
  Val: 9
- Compound: "CC1=CC(=O)N(Nc2ccc(F)c(N3CC(F)(F)C3)n2)C1=O"
  Measurement Type: "selectivity ratio"
  Val: 5.8
- Compound: "CC1=CC(=O)N(Nc2nc(N3CC(F)(F)C3)nn3cccc23)C1=O"
  Measurement Type: "selectivity ratio"
  Val: 7.7
- Compound: "CC1=CC(=O)N(Nc2nc(C3CCCC3)nn3cccc23)C1=O"
  Measurement Type: "selectivity ratio"
  Val: 5.6
- Compound: "CO[C@H]1CCN(c2nc(NN3C(=O)C=C(C)C3=O)ccc2C(F)(F)F)C1"
  Measurement Type: "selectivity ratio"
  Val: 24.1
- Compound: "CC1=CC(=O)N(Nc2ccc(C(F)(F)F)c(-c3ccnn3C)n2)C1=O"
  Measurement Type: "selectivity ratio"
  Val: 2.4
- Compound: "CC1=CC(=O)N(Nc2ccc(C(F)(F)F)c(Cl)c2)C1=O"
  Measurement Type: "selectivity ratio"
  Val: 5.7
- Compound: "CC1=CC(=O)N(Nc2ccc(C(F)(F)F)c(C3CCCC3)n2)C1=O"
  Measurement Type: "selectivity ratio"
  Val: 2.8
- Compound: "CC1=CC(=O)N(N(C)c2ccc(C(F)(F)F)c(N3CCCCC3)n2)C1=O"
  Measurement Type: "selectivity ratio"
  Val: 12.5
- Compound: "CC1=CC(=O)N(Nc2nc(N3CCCCC3)nn3cccc23)C1=O"
  Measurement Type: "selectivity ratio"
  Val: 4.9
- Compound: "CC1=CC(=O)N(N(C)c2ccc(C(F)(F)F)c(N3CC(F)(F)C3)n2)C1=O"
  Measurement Type: "selectivity ratio"
  Val: 6.6
- Compound: "CO[C@@H]1CCN(c2nc(NN3C(=O)C=C(C)C3=O)ccc2C(F)(F)F)C1"
  Measurement Type: "selectivity ratio"
  Val: 16
- Compound: "CC1=CC(=O)N(Nc2nc(-c3ccnn3C)nn3cccc23)C1=O"
  Measurement Type: "selectivity ratio"
  Val: 5.3
- Compound: "CC1=CC(=O)N(Nc2cc(C(F)(F)F)cc(N3CCCC3)n2)C1=O"
  Measurement Type: "selectivity ratio"
  Val: 5.5
- Compound: "CC1=CC(=O)N(N(C)c2ccc(C(F)(F)F)c(N3CCCC(F)(F)C3)n2)C1=O"
  Measurement Type: "selectivity ratio"
  Val: 6.4
- Compound: "CC1=CC(=O)N(Nc2nc(N3CCCC3)nn3cccc23)C1=O"
  Measurement Type: "selectivity ratio"
  Val: 7.1
- Compound: "COc1cccc2nc(-c3cccs3)nc(NN3C(=O)C=C(C)C3=O)c12 [AS-602868]"
  Measurement Type: "selectivity ratio"
  Val: 5.1
- Compound: "CC1=CC(=O)N(Nc2nc(C(F)(F)F)nn3cccc23)C1=O"
  Measurement Type: "selectivity ratio"
  Val: 8.7
- Compound: "CC1=CC(=O)N(Nc2ncc(C(F)(F)F)c(Cl)n2)C1=O"
  Measurement Type: "selectivity ratio"
  Val: 2.2
- Compound: "CC1=CC(=O)N(Nc2ccc3cn[nH]c3n2)C1=O"
  Measurement Type: "selectivity ratio"
  Val: 3.5
